I'd appreciate it if you could supply T/C values for the items below.
# System: BDF1 mice, s.c. Lewis lung carcinoma, T/C %
# test protocol: NCI In Vivo Anticancer Drug Screen. Data for tumor model Lewis Lung Carcinoma (subcutaneous) in B6D2F1 (BDF1) mice
# test conditions: endpoint: median survival time; dose: 12.5 mg/kg/injection; schedule: Q01DX009 (ip); vehicle: Klucel (hydroxypropylcellulose) (HPC); higher = longer survival
Records with an inconclusive call do not appear.

compound	T/C
C1=CC2(OCCO2)C2CC=CC3(OCCO3)C2C1 (configuration not stated)	100 % of control

# map each compound to its T/C
1. O=NN(CCCl)C(=O)Nc1ccc(I)cc1
2. CN(C)C=Nc1ccc2c3c(cccc13)CC2
3. C[n+]1ccc(Nc2ccc(NC(=O)c3ccc(Nc4cc[n+](C)c5ccc(N)cc45)cc3N)cc2)cc1
4. FC(F)(F)c1cc(CN(CCCl)CCCl)cc(C(F)(F)F)c1
5. CCN(CC)CCCC(C)Nc1c2ccc(Cl)cc2nc2cc(Cl)ccc12 (configuration not stated)
6. CSc1ccc(NC(=O)N(CCCl)N=O)cc1
7. COc1ccc2c(Cc3ccccc3)cncc2c1O

*A*
1. 101 % of control
2. 107 % of control
3. 244 % of control
4. 90 % of control
5. 105 % of control
6. 90 % of control
7. 90 % of control

Report T/C for every entry below.
1. c1ccc([B-]2([C+]3CCCCC3)N3CCCCC3C3CCCCN32)cc1 (configuration not stated)
2. O=NN(CCCl)C(=O)Nc1cc2c3ccccc3ccc2c2ccccc12
3. Nc1nc(-c2ccccc2N=NN2CCCC2)nc2ccccc12
4. O=[N+]([O-])c1ccc([I+]c2ccccc2)cc1

*A*
89 % of control
96 % of control
97 % of control
91 % of control

Where do these numbers come from? They come from PubChem BioAssay AID270.
